Where do these numbers come from? They come from patent US9113629B2.

Test system: APESV: bentgrass (Apera spica-venti)
Assay: Post-emergent Test III, herbicidal activity in wheat and barley
Assay type: in vivo
Conditions: Table 9; dose for 80 percent growth reduction, probit analysis; 21 d
Protocol: Post-emergent Test III. […] A weighed amount, determined by the highest rate to be tested, of each test compound was placed in a 25 mL glass vial and was dissolved in 4 mL of a 97:3 v/v mixture of acetone and DMSO to obtain concentrated stock solutions. […]
List of GR80 APESV values.

Worked set:
chemical_string: COC(=O)c1nc(-c2ccc(Br)cc2)c(Cl)c(N)c1Cl
target_or_system: APESV: bentgrass (Apera spica-venti)
GR80 APESV: 14 g ai/ha

chemical_string: COC(=O)c1nc(-c2cc(F)c(Br)cc2F)c(F)c(N)c1Cl
target_or_system: APESV: bentgrass (Apera spica-venti)
GR80 APESV: 11 g ai/ha

chemical_string: COc1c(N)nc(-c2ccc(Br)cc2F)nc1C(=O)O
target_or_system: APESV: bentgrass (Apera spica-venti)
GR80 APESV: >140 g ai/ha

Incoming: Consider the compound shown here: C#Cc1ccc(-c2nc(C(=O)O)c(C=C)c(N)c2F)cc1 What is its recorded GR80 APESV?
Outgoing: >140 g ai/ha

Incoming: Could you tell me which GR80 APESV is on file for Nc1c(Cl)c(C(=O)O)nc(-c2ccc(C(F)(F)F)c(F)c2)c1Cl ?
Outgoing: 34 g ai/ha

Incoming: I am curious: what GR80 APESV value has been reported for COC(=O)c1nc(-c2cc(F)c(I)cc2F)c(F)c(N)c1Cl ?
Outgoing: 18 g ai/ha

###

test system: TRZSS: wheat, including spring and winter (Triticum aestivum); assay: Post-emergent Test III, herbicidal activity in wheat and barley; assay type: in vivo; conditions: Triticum aestivum, post-emergence, 504 h; Table 8; 35 g ai/ha; post-emergent; 21 d; read-out: Visual Growth Reduction (%) 21 Days After Application TRZSS
measured_attribute: pest or weed control at 35 g/ha

molecule: COc1c(N)nc(-c2ccc(Br)c(F)c2)nc1C(=O)O [Compound 113]
pest or weed control at 35 g/ha: 85 to 94%
//
molecule: Nc1cc(-c2cc(F)c(Br)cc2F)nc(C(=O)O)c1Cl [Compound 3]
pest or weed control at 35 g/ha: 85 to 94%
//
molecule: COC(=O)c1nc(-c2ccc(C#N)c(F)c2)c(F)c(N)c1Cl [Compound 135]
pest or weed control at 35 g/ha: 30 to 44%
//
molecule: Nc1cc(-c2ccc(Br)c(F)c2)nc(C(=O)O)c1Cl [Compound 110]
pest or weed control at 35 g/ha: 85 to 94%

Incoming: Which pest or weed control at 35 g/ha value belongs to Nc1c(Cl)c(C(=O)O)nc(-c2ccc(Br)c(F)c2)c1Cl [Compound 43] ?
Outgoing: 85 to 94%

Incoming: Looking for the measured pest or weed control at 35 g/ha of COc1c(N)nc(-c2ccc(I)c(F)c2)nc1C(=O)O [Compound 37] , can you help?
Outgoing: 75 to 84%

###

system: ALOMY: black-grass (Alopecurus myosuroides); assay: Post-emergent Test III, herbicidal activity in wheat and barley; type: in vivo; conditions: probit analysis, dose for growth reduction of 50 percent, 21 days after application
# maps each entry to its GR50 ALOMY
Express it in g ai/ha; write the number only.

Check out these entries, answers already filled in.
compound: COC(=O)c1nc(-c2ccc(Br)c(F)c2F)c(F)c(N)c1Cl [Compound 109]
target_or_system: ALOMY: black-grass (Alopecurus myosuroides)
measured_attribute: GR50 ALOMY
measurement: 22

compound: COC(=O)c1nc(-c2ccc(Cl)c(F)c2)c(F)c(N)c1Cl [Compound 216]
target_or_system: ALOMY: black-grass (Alopecurus myosuroides)
measured_attribute: GR50 ALOMY
measurement: 54

Incoming: Entry Nc1c(F)c(-c2ccc(C(F)(F)F)c(F)c2F)nc(C(=O)O)c1Cl [Compound 167] : reported GR50 ALOMY = ?
Outgoing: 57
